These entries and their values trace back to patent US20210032312A1.

ASSAYED_SYSTEM: T1, In house human CD8A-Fc (human, UniProt P01732 22-182, limits assumed)
T1 construct: Captured on goat anti-human Fc on a ProteOn GLC chip; also called hCD8A-Fc; recombinant human CD8 alpha; not shown: linker with flag (and polyhistidine) tag and Fc of human IgG1
T1 sequence (P01732 22-182 limits assumed): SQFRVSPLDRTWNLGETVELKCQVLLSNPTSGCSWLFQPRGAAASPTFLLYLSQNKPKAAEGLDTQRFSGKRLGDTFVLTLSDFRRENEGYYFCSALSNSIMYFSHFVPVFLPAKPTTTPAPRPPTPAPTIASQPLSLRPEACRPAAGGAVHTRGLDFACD
PROCEDURE_DETAILS: SPR (ProteOn), captured hCD8A-Fc
READOUT_KIND: log10 of koff (log10 of the value in s⁻¹)
Please note: log10 values; quantity koff; unit s⁻¹.

| BINDER | log10 of koff |
| --- | --- |
| P283BR9P1363_D11 (designed binder, FN3 domain) LPAPKNLVVSRVTEDSARLSWNKKHDGQPTFDSFLIQYQESEKVGEAIVLTVPGSERSYDLTGLKPGTEYTVSIYGVDVVYEGSYPASSNPLSAIFTT | -3.31 |
| P282DR9P1359_E11 (designed binder, FN3 domain) LPAPKNLVVSRVTEDSARLSWTAPDAAFDSFYISYPEWPPVGEAIVLTVPGSERSYDLTGLKPGTEYWVIIYGVKGGAISTPLSAIFTT | -3.58 |

Determine from records and report log10 of koff for P282BR9P1357_D12 (designed binder, FN3 domain) LPAPKNLVVSRVTEDSARLSWGQYITAFSFDSFLIQYQESEKVGEAIVLTVPGSERSYDLTGLKPGTEYTVSIYGVDVAWFQGKPTWSNPLSAIFTT
-4.06

Determine from records and report log10 of koff for P282BR9P1357_A9 (designed binder, FN3 domain) LPAPKNLVVSRVTEDSARLSWKANRTTDLHFDSFLIQYQESEKVGEAIVLTVPGSERSYDLTGLKPGTEYTVSIYGVDVQYDGQQPLYSNPLSAIFTT
-3.23

Determine from records and report log10 of koff for P283BR9P1363_C8 (designed binder, FN3 domain) LPAPKNLVVSRVTEDSARLSWAKTSDLHPLFDSFLIQYQESEKVGEAIVLTVPGSERSYDLTGLKPGTEYTVSIYGVDVKWEGNRPVASNPLSAIFTT
-3.47
